- procedure_summary: Half life in Beagle dog at 3 mg/kg, po and 0.3 mg/kg, iv
- Assay type: ADME, organism-based, Canis lupus familiaris
- applied_conditions: in vivo
metric: half-life (min)
Numbers only, in min.

Identify the reported half-life for the following entry. `CCC/N=C1\S/C(=C\c2ccc(OC[C@@H](O)CO)c(Cl)c2)C(=O)N1c1ccccc1C`
600

---

- procedure_summary: Half life in human administered as single ascending dose
- Assay type: ADME, organism-based
- applied_conditions: in vivo
metric: half-life

Identify the reported half-life for the following entry. `CCC/N=C1\S/C(=C\c2ccc(OC[C@@H](O)CO)c(Cl)c2)C(=O)N1c1ccccc1C`
22 h
